# Experimental target: human recombinant GCL (Homo sapiens (Human))
# Method summary: GCL enzyme profiling assay (ADP-Glo luminescence)
# Assay type: biochemical
# Experimental parameters: human recombinant GCL, ADP-Glo; read-out: GCL IC50
pIC50: −log10 of the molar value.
Outcome measure: pIC50

INPUT: Suppose we examine the molecule N=S(=O)(CC[C@H](N)C(=O)O)CCC(O)(c1ccc(Oc2ccc3ccc(=O)oc3c2)cc1)C(F)(F)F (some centres unmarked) [compound 501] ; what pIC50 value has been reported?
OUTPUT: ≥ 4.70

INPUT: Suppose we examine the molecule N=S(=O)(CCC1CCO1)CC[C@H](N)C(=O)O (some centres unmarked) [Compound 304] ; what pIC50 value has been reported?
OUTPUT: 2.70 to 4.70

INPUT: Suppose we examine the molecule N=S(=O)(CC[C@H](N)C(=O)O)CCC(O)(c1ccc(-c2ccc(Cl)cc2Cl)cc1OC(F)(F)F)C(F)(F)F (some centres unmarked) [Compound 449] ; what pIC50 value has been reported?
OUTPUT: ≥ 4.70

INPUT: Suppose we examine the molecule CC1(CCCS(=N)(=O)CC[C@H](N)C(=O)O)COC1 (some centres unmarked) [Compound 312] ; what pIC50 value has been reported?
OUTPUT: 2.70 to 4.70

INPUT: Suppose we examine the molecule C[C@](O)(CCS(=N)(=O)CC[C@H](N)C(=O)O)C(F)(F)F (single isomer, unassigned) [Compound 325] ; what pIC50 value has been reported?
OUTPUT: < 2.70

INPUT: Suppose we examine the molecule N=S(=O)(CC[C@H](N)C(=O)O)CCC12CC(C1)C2 (some centres unmarked) [Compound 294] ; what pIC50 value has been reported?
OUTPUT: ≥ 4.70

INPUT: Suppose we examine the molecule N=S(=O)(CC[C@H](N)C(=O)O)CCC1(c2ccc3[nH]nnc3c2)CCC1 (some centres unmarked) [Compound 395] ; what pIC50 value has been reported?
OUTPUT: 2.70 to 4.70

INPUT: Suppose we examine the molecule COC(=O)C(CCS(=N)(=O)CC[C@H](N)C(=O)O)C(F)(F)F (some centres unmarked) [Compound 305] ; what pIC50 value has been reported?
OUTPUT: ≥ 4.70

* * *

Item-by-item account of IC50
# Experimental target: human recombinant GCL (Homo sapiens (Human), UniProt P48506)
# Sequence (P48506 whole entry): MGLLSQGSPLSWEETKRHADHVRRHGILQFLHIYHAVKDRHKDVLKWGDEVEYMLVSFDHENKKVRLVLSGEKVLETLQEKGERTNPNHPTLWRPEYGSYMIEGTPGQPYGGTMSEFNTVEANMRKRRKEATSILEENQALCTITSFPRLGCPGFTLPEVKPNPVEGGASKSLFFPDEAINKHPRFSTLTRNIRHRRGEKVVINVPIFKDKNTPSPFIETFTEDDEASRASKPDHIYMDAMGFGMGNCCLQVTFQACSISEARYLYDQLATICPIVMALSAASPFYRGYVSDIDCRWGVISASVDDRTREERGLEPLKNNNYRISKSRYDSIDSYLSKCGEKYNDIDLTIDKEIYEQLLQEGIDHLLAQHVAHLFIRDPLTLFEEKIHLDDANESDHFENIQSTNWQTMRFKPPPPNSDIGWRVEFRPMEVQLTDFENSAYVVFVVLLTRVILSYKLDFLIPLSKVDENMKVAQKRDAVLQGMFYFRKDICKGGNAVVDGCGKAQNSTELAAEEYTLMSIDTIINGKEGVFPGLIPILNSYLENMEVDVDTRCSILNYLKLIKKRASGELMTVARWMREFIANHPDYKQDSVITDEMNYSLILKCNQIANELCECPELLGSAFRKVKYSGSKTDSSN
# Method summary: GCL enzyme profiling assay (ADP-Glo luminescence)
# Type: biochemical
# Experimental parameters: human recombinant GCL, ADP-Glo; read-out: GCL IC50

Study these solved cases before continuing.
>  <Compound>
CC(C)(C)OC(=O)[C@@H](N)CC[S@](=N)(=O)CC[C@H](O)C(F)(F)F

>  <IC50>
> 2000 µM

$$$$
>  <Compound>
Cc1cnn(C(CCS(=N)(=O)CC[C@H](N)C(=O)O)C(F)(F)F)n1 (stereo partly shown)

>  <IC50>
≤ 20 µM

$$$$
>  <Compound>
CCC(C)(C)OC(=O)[C@@H](N)CCS(=N)(=O)CCCC(F)(F)F (stereo partly shown)

>  <IC50>
20 to 2000 µM

$$$$
>  <Compound>
Cc1cc(F)ccc1-c1ccc(C(O)(CCS(=N)(=O)CC[C@H](N)C(=O)O)C(F)(F)F)nc1 (stereo partly shown)

>  <IC50>
≤ 20 µM

$$$$
>  <Compound>
N=S(=O)(CCC(c1ccc(-c2cc(F)ccc2O)cc1)C(F)(F)F)CC[C@H](N)C(=O)O (stereo partly shown)

>  <IC50>
≤ 20 µM

$$$$
>  <Compound>
N=S(=O)(CC[C@H](N)C(=O)O)CCC(O)(c1ccc(-c2ccc(OC(F)(F)F)cc2O)cc1)C(F)(F)F (stereo partly shown)

>  <IC50>
≤ 20 µM

$$$$
>  <Compound>
N#Cc1ccc(-c2ccc(C(CCS(=N)(=O)CC[C@H](N)C(=O)O)C(F)(F)F)cc2)cn1 (stereo partly shown)

>  <IC50>
≤ 20 µM

$$$$
>  <Compound>
N=S(=O)(CCC(c1ccc(-c2ccccc2Cl)cc1)C(F)(F)F)CC[C@H](N)C(=O)O (single isomer, unassigned)

>  <IC50>
20 to 2000 µM

$$$$

INPUT: IC50 of N=S(=O)(CCC(c1ccc(S(=O)(=O)c2ccccc2)cc1)C(F)(F)F)CC[C@H](N)C(=O)O (stereo partly shown) on human recombinant GCL (Homo sapiens (Human), UniProt P48506)?
OUTPUT: 20 to 2000 µM

INPUT: IC50 of N=S(=O)(CC[C@H](N)C(=O)O)CCC1(n2ncc(-c3cccnc3)n2)CCC1 (stereo partly shown) on human recombinant GCL (Homo sapiens (Human), UniProt P48506)?
OUTPUT: 20 to 2000 µM

INPUT: IC50 of CCCCS(=N)(=O)CC[C@H](N)C(=O)OCC (stereo partly shown) on human recombinant GCL (Homo sapiens (Human), UniProt P48506)?
OUTPUT: 20 to 2000 µM

INPUT: IC50 of N=S(=O)(CCC(C1CCCC1)C(F)(F)F)CC[C@H](N)C(=O)O (stereo partly shown) on human recombinant GCL (Homo sapiens (Human), UniProt P48506)?
OUTPUT: ≤ 20 µM

INPUT: IC50 of N[C@@H](CCS(=O)(=O)CCC(O)C(F)(F)F)C(=O)O (stereo partly shown) on human recombinant GCL (Homo sapiens (Human), UniProt P48506)?
OUTPUT: > 2000 µM

INPUT: IC50 of N=S(=O)(CC[C@H](N)C(=O)O)CCC(c1ccc(-c2ccc(Cl)cc2Cl)cc1)(C(F)(F)F)C(F)(F)F (stereo partly shown) on human recombinant GCL (Homo sapiens (Human), UniProt P48506)?
OUTPUT: ≤ 20 µM

INPUT: IC50 of N#CC1CC=C(c2ccc(C(CCS(=N)(=O)CC[C@H](N)C(=O)O)C(F)(F)F)cc2)CC1 (stereo partly shown) on human recombinant GCL (Homo sapiens (Human), UniProt P48506)?
OUTPUT: ≤ 20 µM

INPUT: IC50 of N=S(=O)(CC[C@H](N)C(=O)O)CCC(O)(c1nc2ccccc2[nH]1)C(F)(F)F (stereo partly shown) on human recombinant GCL (Homo sapiens (Human), UniProt P48506)?
OUTPUT: 20 to 2000 µM

* * *

# Experimental target: human recombinant GCL (Homo sapiens (Human))
# Method summary: GCL enzyme profiling assay (ADP-Glo luminescence)
# Assay type: biochemical
# Experimental parameters: human recombinant GCL, ADP-Glo; read-out: GCL IC50
Item-by-item account of IC50

Study these solved cases before continuing.
>  <Molecule>
N=S(=O)(CC[C@H](N)C(=O)O)CCC1(O)[C@H]2C[C@@H]3C[C@@H](C[C@H]1C3)C2 (some centres unmarked)

>  <Result>
20 to 2000 µM

$$$$
>  <Molecule>
N=[S@](=O)(CC[C@H](N)C(=O)O)CCC1(c2ccccn2)CCC1

>  <Result>
> 2000 µM

$$$$

INPUT: Suppose we examine the molecule N[C@@H](CCS(=O)(=O)CCC(O)(c1ccsn1)C(F)(F)F)C(=O)O (some centres unmarked) ; what IC50 value has been reported?
OUTPUT: ≤ 20 µM

INPUT: Suppose we examine the molecule N=S(=O)(CC[C@H](N)C(=O)O)CCC(O)(c1ccc(-c2ccc(Cl)cc2Cl)cn1)C(F)(F)F (single isomer, unassigned) [Compound 464] ; what IC50 value has been reported?
OUTPUT: 20 to 2000 µM

* * *

# Experimental target: human recombinant GCL (Homo sapiens (Human), UniProt P48506)
# Method summary: GCL enzyme profiling assay (ADP-Glo luminescence)
# Type: biochemical
# Experimental parameters: human recombinant GCL 5 nM, 1 h preincubation with ATP; read-out: GCL IC50
pIC50: −log10 of the molar value.
Item-by-item account of pIC50

Study these solved cases before continuing.
>  <Compound>
N#CC1(CCS(=N)(=O)CC[C@H](N)C(=O)O)CC1 (stereo partly shown)

>  <Outcome measure>
pIC50

>  <Result>
2.70 to 4.70

$$$$
>  <Compound>
CC(C)(CO)CCS(=N)(=O)CC[C@H](N)C(=O)O (stereo partly shown)

>  <Outcome measure>
pIC50

>  <Result>
2.70 to 4.70

$$$$
>  <Compound>
CC(C)(CCS(=N)(=O)CC[C@H](N)C(=O)O)c1cnoc1 (stereo partly shown)

>  <Outcome measure>
pIC50

>  <Result>
2.70 to 4.70

$$$$

INPUT: pIC50 of N=S(=O)(CCC(c1ccc(-c2ccccc2Cl)cc1)C(F)(F)F)CC[C@H](N)C(=O)O (stereo partly shown) on human recombinant GCL (Homo sapiens (Human), UniProt P48506)?
OUTPUT: ≥ 4.70

* * *

# Test system: RKN cells
# Method summary: RKN cell profiling assay (cell viability, CellTiter-Glo)
# Assay type: cell-based
# Experimental parameters: 96 h, 96 h exposure, read-out: Cell Killing EC50 (mM), individual values in parentheses
Outcome measure: EC50 (mM)
Response body: numeric value in mM, unit text excluded.

INPUT: Suppose we examine the compound N=S(=O)(CCc1ccccc1C(F)(F)F)CC[C@H](N)C(=O)O (stereo partly shown) [Compound 15] ; what EC50 value has been reported?
OUTPUT: 1.2

Cited source: patent US20260034094A1
